Each entry below carries its recorded cytotoxicity at 10 µM.
# Experiment notes: Toxicity liver stage against HepG2, at 10uM
# Assay type: cell-based
# Set-up: test concentration 10 uM, cell line HepG2-A16-CD81EGFP
# Test settings: human, HepG2-A16-CD81EGFP cells; read-out: INHIBITION

Compound	cytotoxicity at 10 µM [%]
Cc1cc(CN2CCN(Cc3cc(C#N)ccc3F)CC2)no1	5.78
Cc1c(C)n(CC(O)CN2CCN(CCO)CC2)c2c(Cl)cccc12 (stereo unspecified)	-12.9
CCc1nnc(Nc2cccc(C3CCN(C)CC3)n2)s1	-28.6
CN1CCCN(S(=O)(=O)c2cnn(C)c2)c2cc(Cl)ccc21	7.41
c1cc(CN2CCc3ncnc(C4CCOC4)c3CC2)ccn1 (stereo unspecified)	-0.703
CN1CC(c2ccccc2)CC12CCN(C(=O)c1c(Cl)cnn1C)CC2 (stereo unspecified)	-17
CC(C)n1nc(CN2CCOCC2)c2c1CN(Cc1ccsc1)C2	-132
Cc1cnn(Cc2ccc(NC(=O)N[C@@H]3C=C[C@H](CO)C3)cc2)c1	7.76
N#Cc1ccc(F)c(CSCCN2CCOCC2)c1	-5.71
COc1cccc(C(C(=O)O)N2CCCN(C3CCCC3)CC2)c1OC (stereo unspecified)	-11.3
O=C(C1SCCc2sccc21)N1CCN(CCO)CC1 (stereo unspecified)	-19.8
COc1ccc(CCN2CC(c3nc(CSC)no3)CCC2=O)cc1 (stereo unspecified)	3.11
CCCN1CCC(NC(=O)Nc2ccc(OC)c(OC)c2)CC1	-13.4
Cc1ncoc1C(=O)N1CCOC(CCCC(C)C)C1 (stereo unspecified)	8.29
Cc1ccc2nnc(C(=O)NCCCn3cccn3)nc2c1	-7.93
O=C(NCc1cnn2cccnc12)C1CC2(CCNCC2)CN1 (stereo unspecified)	-8.32
CN(C)S(=O)(=O)c1ccc2c(c1)N(Cc1ccccn1)CCC2	0.645
CCn1nc(CC(C)C)cc1C(=O)NCc1c(C)cc(C)nc1OC	1.66
CCSc1ncc(CN2CCN(c3ccc(C#N)cc3)C(=O)C2)cn1	-2.54
Cc1nn(C)c2ncc(CN3CCN(Cc4ccco4)CC3)cc12	0.243
Cc1cc(CNc2ccnn2C)ccc1-n1cncn1	-43.2
Cc1cc(C(=O)Nc2ccc(OC3CCOCC3)c(C)c2)[nH]n1	-8.03
CC(Nc1ccc(Br)cc1)c1nc(C2CC2)no1 (stereo unspecified)	6.27
COCCN1CCO[C@@H]2CN(Cc3ccccn3)C[C@@H]2C1	-3.06
Cc1ccc(C(C)NC(=O)N2CCN(S(C)(=O)=O)CC2)o1 (stereo unspecified)	25.3
COc1ccccc1OCCc1nnc(NC(=O)C2CC23CCC3)s1 (stereo unspecified)	1.26
Cc1nccc(C(=O)N2CCCN(Cc3cnn(C(C)C)c3)CC2)n1	-0.239
O=C(C1CCCC1)N1CC2(CCCN(C3COC3)C2)Cc2ccccc21 (stereo unspecified)	9.96
Cc1cc(CN(C)CC2CC(C3CCCCC3)=NO2)no1 (stereo unspecified)	22.4
CS(=O)(=O)CCNC(=O)NCCc1cc2ccccc2o1	2.8
c1cnc2[nH]c(C3CCCNC3)c(CN3CCCOCC3)c2c1 (stereo unspecified)	-1.43

----------
# Experiment notes: Toxicity liver stage against HepG2, at 10uM
# Assay type: cell-based
# Design: test concentration 10 uM, cell line HepG2-A16-CD81EGFP
# Test settings: human, HepG2-A16-CD81EGFP cells; read-out: INHIBITION
Each entry below carries its recorded cytotoxicity at 10 µM.

Compound	Unit text	cytotoxicity at 10 µM
Cc1nonc1CN1CC[C@@](O)(C2CCC2)[C@H](C)C1	%	17.5
O=C(CC(SC1CCCCC1)C(=O)O)c1ccc(Cl)cc1 (centres undefined)	%	3.16
Cc1cc(S(=O)(=O)N2CCCc3ccccc32)sc1C(=O)O	%	-13.5
CSc1ccc(-c2nc(CN3CCNCC3C)c(C)o2)cc1 (centres undefined)	%	-5.58
COc1cc(C)nc(N2CCN(C(=O)COC3CCCC3)CC2)n1	%	-3.78
CS(=O)(=O)NCc1cn2c(n1)CN(Cc1cccnc1)CC2	%	-103
O=C(c1ccnc(C2CCNCC2)c1)N1CCCOCC1	%	-3.64
CCN(CC)CCN(C)Cc1cn(C)nc1-c1ccc2c(c1)OCCO2	%	2.95
CC(=O)N1CCO[C@@H]2CN(Cc3ccccc3F)C[C@@H]2C1	%	-108
COc1ccc(NC(=O)c2ccccc2NCc2ncnn2C)cc1	%	2.06
COc1cc(C)nc(N2CCN(C(=O)CN(C)C3CC3)CC2)n1	%	-4.43
Cc1nc(NCCN2CCCC2=O)cc(C2CN(C)CCO2)n1 (centres undefined)	%	-10.5
CNC(=O)c1ccc(-c2ccc(CNS(=O)(=O)N(C)C)cc2)nc1C	%	-2.05
Cc1cc2c(cc1CN1CCCCC1CCn1ccnc1C)OCO2 (centres undefined)	%	3.09
CN(C(=O)NCc1ccncc1)C1CCCN(c2ccccc2)C1=O (centres undefined)	%	-8.86
C1CCN(CCO[C@@H]2CC[C@H]3[C@H]2OCCN3CC2CCOCC2)C1	%	2.98
COc1cccc(OCC2CCCN(Cc3ncc[nH]3)C2)c1 (centres undefined)	%	4.97
CC(C)(O)CN1CCN(C(=O)c2sccc2C2CC2)CC1	%	5.37
COCC(=O)N1CCOC2(CCCN(c3cnccn3)C2)C1 (centres undefined)	%	7.83
COCC1CN(S(=O)(=O)c2ccc(C)cc2)Cc2c1cnn2C (centres undefined)	%	-5.37
Cc1noc(C)c1CN1Cc2cn(C)nc2C(COCC2CC2)C1 (centres undefined)	%	-73
COCCCn1c(CN2CCCC(O)C2)cnc1S(=O)(=O)C1CCCC1 (centres undefined)	%	-13.5
CC(C)c1noc(C[S+]([O-])CC(=O)Nc2ccc(F)c(F)c2)n1 (centres undefined)	%	-8.82
Cc1cc(C)c(CNC(=O)NCCCNc2ccccn2)c(=O)[nH]1	%	-43
Cc1nc(CNC(=O)NCCc2ccc(N(C)C)cc2)cs1	%	-11.6
Cc1nnc([C@H]2C[C@@H]3CCN(C(=O)C4CCOCC4)C[C@H]3O2)[nH]1	%	16.5
CN1CC(c2cc(O)nc(NCc3ccccc3Cl)n2)CC1=O (centres undefined)	%	-20.2
c1ccc(-c2nnc([C@H]3CCN(C4CCC4)C3)o2)cc1	%	1.74
CNS(=O)(=O)c1ccc(C(=O)N2CCCC(n3cccn3)C2)cc1 (centres undefined)	%	-7.95
CCN(CC)CCN1CCO[C@H]2[C@@H](OCc3ccncc3)CC[C@@H]21	%	-4.65
CNc1oc(-c2ccc(S(=O)(=O)N(C)C)o2)nc1C#N	%	-5.96
c1ccc(Cc2noc(CN3CCCCC3Cn3cncn3)n2)cc1 (centres undefined)	%	-13.2
O=C1CC(c2ccc(C(=O)O)cc2)c2ncn(-c3ccccc3)c2N1 (centres undefined)	%	-1.04
CCc1nc2n(n1)CC(NCc1nc(C)c(C)o1)CC2 (centres undefined)	%	-11
Cc1cnn(C2CCCN(C(=O)c3ccc(N4CCCC4)nn3)C2)c1 (centres undefined)	%	-2.38
CSc1nc2ccsc2c(=O)n1CC(=O)N(C)c1ccccc1	%	-5.57
CC1=Nc2c(c(=O)[nH]n2C(C)C)C(c2ccc3c(c2)OCCO3)S1 (centres undefined)	%	-1.01
O=C(NCc1csc(Br)c1)Nc1cn[nH]c1	%	2.1
CCCC(NC(=O)c1ccccn1)c1nnc2ccccn12 (centres undefined)	%	-6.54
NC(=O)c1ccc(C2CCCN2C(=O)Cn2nc3ccccc3n2)s1 (centres undefined)	%	9.15
Cc1nc(COCc2cnc3n2CCN(C)C3C)cs1 (centres undefined)	%	6.01
COc1cccc2c(=O)n(Cc3cc(C4CC4)[nH]n3)cnc12	%	3.76
CC(NCc1ccccc1Br)c1ccc2[nH]c(=O)[nH]c2c1 (centres undefined)	%	-6.12
CCCN1CC2(CCN(c3ncc(F)cn3)CC2)CC1C(=O)O (centres undefined)	%	-1.71

----------
Each entry below carries its recorded cytotoxicity at 10 µM.
# Experiment notes: Toxicity liver stage against HepG2, at 10uM
# Format: cell-based
# Set-up: test concentration 10 uM, cell line HepG2-A16-CD81EGFP
# Test settings: human, HepG2-A16-CD81EGFP cells; read-out: INHIBITION

Compound	cytotoxicity at 10 µM [%]
Cc1cc(=O)[nH]c(-n2nc(C)c(CCC(=O)NCc3ccco3)c2C)n1	-5.33
CCC[C@@H]1CN(C(=O)c2conc2-c2ccccc2)C[C@H]1N(C)C	2.29
CCn1ccc(NC(=O)CCn2nc(C)c3ccccc32)n1	4.51
CCOCc1ncn2c1CN(S(=O)(=O)c1cccs1)CCC2	9.52
Cc1nn(-c2ccccc2)c(C)c1-c1ccnc(N2CCC(O)CC2)n1	-1.74
O=C(NCC1CCS(=O)(=O)C1)N1CCN(c2cnccn2)CC1 (stereo not given)	-7.21
CCc1ccc(OCCN(C)C(=O)c2ccncc2Cl)cc1	-2.91
CN(C)C(=O)C1CCN(C(=O)c2c[nH]c3cc(Cl)ccc23)CC1	-0.983
COc1cc(C2(C(=O)N3CCCC(n4cncn4)C3)CC2)ccc1C (stereo not given)	-6.16
Cc1ccc(NC2CCN(C(=O)CCCn3ccnc3C)CC2)nn1	-11.8
CC1CCc2n[nH]c(C(=O)NCCc3ccco3)c2C1 (stereo not given)	-6.63
COC(=O)CC1CCN(C(=O)c2ccc(C)cc2)CC1	4.99
COc1ccc(C)cc1CCNS(=O)(=O)c1ccc2c(c1)CCC(=O)N2	-45.5
CC(NC(=O)c1cccc[n+]1[O-])c1ccc2c(c1)CCC(=O)N2 (stereo not given)	45.2
OCC1(O)CCN(c2ncccc2C(F)(F)F)CC1	-13.6
Cc1nc(C)n(CC2CCCN(CCOc3ccc(C#N)cc3)C2)n1 (stereo not given)	-1.55
COc1cccc(CNC(=O)c2nc3c(o2)CN(S(C)(=O)=O)C3)c1	8.65
CCc1nc(CN(C)C(=O)NC(C)c2cccc(NC(C)=O)c2)cs1 (stereo not given)	-4.85
O=C(Nc1ccc(F)cc1)C1CNCCN1C(=O)CC1CCCCC1 (stereo not given)	7.01
O=C1CCCN1CCCC(=O)N1CCCC(c2ccn[nH]2)C1 (stereo not given)	-22.8
O=C(NCCc1ccncc1)[C@H]1CC[C@@H]2[C@@H](CCN2CC2CC2)O1	0.545
CCn1cc(Cl)c(C(=O)NCc2cnn(C)c2)n1	-4.41
CCn1cnnc1CNC(=O)N1CCOC(c2ccc(Cl)cc2)C1 (stereo not given)	4.13
O=C(C[C@@H]1COC[C@H]2CN(CC3CC3)C[C@@H]12)NCc1cccnc1	9.21
CN(CC1=CCCN(CCc2ccccn2)C1)C(=O)c1ccco1	1.7
O=C([C@@H]1COC[C@H]2CN(c3ccncn3)C[C@H]21)N1CCCC1	-133
O=C(c1csc(-c2ccco2)n1)N(CC1CCOC1)C1CC1 (stereo not given)	-2.72
CC(C)N1CCC(N(C)c2ccnc(N(C)C)n2)CC1	-3.3
O=C1CCCN1CC1CCCCN1C(=O)Nc1cccc(F)c1 (stereo not given)	-1.8
CC(C)Nc1nc2c(cc1C(=O)NCC1CC1)CCN(S(C)(=O)=O)CC2	-1.48
